tested on: GRO-α induced chemotaxis of PMNs; experiment: GRO-α (CXCL1) induced chemotaxis of human PMNs; type: cell-based; conditions: Homo sapiens, compound at 10^−8 M
reported metric: inhibition at 0.01 µM (%)

- compound: "C[C@H](NC(=O)[C@@H](C)c1ccc(Nc2nc(C(F)(F)F)co2)cc1)C(=O)O"
  numeric readout: 34
- compound: "CC(C)[C@H](NC(=O)[C@@H](C)c1ccc(Nc2nc(C(F)(F)F)cs2)cc1)C(=O)O"
  numeric readout: 40
- compound: "CC(C)(C(=O)O)c1ccc(Nc2nc(C(F)(F)F)cs2)cc1"
  numeric readout: 42
- compound: "CC(C(=O)O)c1ccc(Nc2nc(C(F)(F)F)cs2)cc1 (stereo not drawn)"
  numeric readout: 40
- compound: "C[C@H](C(=O)O)c1ccc(Nc2nc(C(C)(C)C)cs2)cc1"
  numeric readout: 45
- compound: "CC(C(=O)O)c1ccc(Nc2nc(C(C)(C)C)cs2)cc1 (stereo not drawn)"
  numeric readout: 36
- compound: "C[C@H](C(=O)NS(C)(=O)=O)c1ccc(Nc2nc(C(F)(F)F)cs2)cc1"
  numeric readout: 39
- compound: "C[C@H](NC(=O)[C@@H](C)c1ccc(Nc2nc(C(F)(F)F)co2)cc1)C(N)=O"
  numeric readout: 39
- compound: "C[C@H](C(=O)NO)c1ccc(Nc2nc(C(F)(F)F)cs2)cc1"
  numeric readout: 47

###

test system: GRO-α induced chemotaxis of PMNs; experiment: GRO-α (CXCL1) induced chemotaxis of human PMNs; assay type: cell-based; details: Homo sapiens, compound at 10^−8 M
Note to self: values exactly at 40% are criterion met. So inhibition at 0.01 µM at or above 40% is criterion met, below is criterion not met.

- compound: "Cc1csc(Nc2ccc(C(C)C(=O)O)cc2)n1 (centres unmarked) [Compound 4]"
  classification: "criterion met"
- compound: "CC(C(=O)O)c1ccc(Nc2nc(C(F)(F)F)co2)cc1 (centres unmarked) [Compound 18]"
  classification: "criterion met"
- compound: "C[C@H](C(=O)N[C@H](C)C(=O)O)c1ccc(Nc2nc(C(F)(F)F)cs2)cc1 [Compound 16]"
  classification: "criterion not met"
- compound: "C[C@H](C(=O)O)c1ccc(N(C)c2nc(C(F)(F)F)co2)cc1 [Compound 20]"
  classification: "criterion met"
- compound: "C[C@H](C(=O)O)c1ccc(Nc2nc(C(F)(F)F)cs2)cc1 [Compound 3]"
  classification: "criterion met"

###

Measured inhibition at 0.01 µM, listed per entry for reference.
tested on: GRO-α induced chemotaxis of PMNs; experiment: GRO-α (CXCL1) induced chemotaxis of human PMNs; assay type: cell-based; conditions: Homo sapiens, compound at 10^−8 M

- compound: "C[C@H](C(N)=O)c1ccc(N(C)c2nc(C(F)(F)F)co2)cc1 [Compound 23]"
  inhibition at 0.01 µM, %: 39
- compound: "C[C@H](C(N)=O)c1ccc(N(C)c2nc(C(F)(F)F)cs2)cc1 [Compound 14]"
  inhibition at 0.01 µM, %: 34
- compound: "C[C@H](C(N)=O)c1ccc(Nc2nc(C(C)(C)C)cs2)cc1 [Compound 15]"
  inhibition at 0.01 µM, %: 45
- compound: "C[C@H](C(=O)O)c1ccc(N(C)c2nc(C(F)(F)F)cs2)cc1 [Compound 9]"
  inhibition at 0.01 µM, %: 40
- compound: "C[C@H](C(N)=O)c1ccc(Nc2nc(C(F)(F)F)co2)cc1 [Compound 22]"
  inhibition at 0.01 µM, %: 49
- compound: "C[C@H](C(N)=O)c1ccc(Nc2nc(C(F)(F)F)cs2)cc1 [Compound 13]"
  inhibition at 0.01 µM, %: 44
- compound: "C[C@H](C(=O)O)c1ccc(Nc2nc(C(F)(F)F)co2)cc1 [Compound 19]"
  inhibition at 0.01 µM, %: 36
- compound: "CC(C(=O)O)c1ccc(N(C)c2nc(C(F)(F)F)cs2)cc1 (stereo not drawn) [Compound 8]"
  inhibition at 0.01 µM, %: 39
- compound: "Cc1csc(Nc2ccc([C@H](C)C(=O)O)cc2)n1 [Compound 5]"
  inhibition at 0.01 µM, %: 38

###

system: CXCL8 induced chemotaxis of PMNs; test: CXCL8 induced chemotaxis of human PMNs; assay type: cell-based; conditions: Homo sapiens, compound at 10^−8 M (footnote *), CXCL8 10^−9 M, read-out: CXCL8 (% inhibition), tested at 10^−8 M
Measured inhibition at 0.01 µM, listed per entry for reference.

- compound: "CC(C(=O)O)c1ccc(Nc2nc(C(F)(F)F)cs2)cc1 (stereo not drawn)"
  inhibition at 0.01 µM [%]: 43
- compound: "CC(C(=O)O)c1ccc(Nc2nc(C(F)(F)F)co2)cc1 (stereo not drawn)"
  inhibition at 0.01 µM [%]: 47
- compound: "CC(C(=O)O)c1ccc(Nc2nc(C(C)(C)C)cs2)cc1 (stereo not drawn)"
  inhibition at 0.01 µM [%]: 55
- compound: "C[C@H](NC(=O)[C@@H](C)c1ccc(Nc2nc(C(F)(F)F)co2)cc1)C(=O)O"
  inhibition at 0.01 µM [%]: 54
- compound: "Cc1csc(Nc2ccc(C(C)C(=O)O)cc2)n1 (stereo not drawn)"
  inhibition at 0.01 µM [%]: 46
- compound: "CC(C(=O)O)c1ccc(N(C)c2nc(C(F)(F)F)cs2)cc1 (stereo not drawn)"
  inhibition at 0.01 µM [%]: 45

These entries and their values trace back to patent US8624036B2.
